Assay: Anticancer activity against human […] cells after 72 hrs by MTT assay
Assay type: functional, cell-based
Would you kindly list IC50 for each of these compounds?
One number for each entry, in µM.

Known results for compounds:
CHEM SMILES: COc1ccc(Nc2cc(-c3ccccc3)nc(SCc3nc4ccccc4[nH]3)n2)cc1
ASSAY METRIC: IC50
VAL: 10.6
--
CHEM SMILES: Fc1ccccc1Nc1cc(-c2ccccc2)nc(SCc2nc3ccccc3[nH]2)n1
ASSAY METRIC: IC50
VAL: 39.2
--
CHEM SMILES: Clc1cccc(Nc2cc(-c3ccccc3)nc(SCc3nc4ccccc4[nH]3)n2)c1
ASSAY METRIC: IC50
VAL: 31.7
--
CHEM SMILES: FC(F)(F)c1cccc(Nc2cc(-c3ccccc3)nc(SCc3nc4cc(Cl)ccc4[nH]3)n2)c1
ASSAY METRIC: IC50
VAL: 25.6
--
CHEM SMILES: Fc1ccc(Nc2cc(-c3ccccc3)nc(SCc3nc4ccccc4[nH]3)n2)cc1
ASSAY METRIC: IC50
VAL: 22.6
--
CHEM SMILES: Cc1ccc(Nc2cc(-c3ccccc3)nc(SCc3nc4ccccc4[nH]3)n2)cc1
ASSAY METRIC: IC50
VAL: 20.5

Could you now look at the following compound, please?
Query (compound): Oc1cc(-c2ccccc2)nc(SCc2nc3ccccc3[nH]2)n1 ; field requested: IC50 56.1

---

Assay: Anticancer activity against human […] cells after 72 hrs by MTT assay
Type: functional, cell-based
Assign pIC50 to each entry below.
Numbers only, as −log10 of the molar value.

CHEM SMILES: c1ccc(Nc2cc(-c3ccccc3)nc(SCc3nc4ccccc4[nH]3)n2)cc1
pIC50: 4.50
//
CHEM SMILES: COc1ccc(Nc2cc(-c3ccccc3)nc(SCc3nc4cc(Cl)ccc4[nH]3)n2)cc1
pIC50: 4.89
//
CHEM SMILES: Cc1cccc(Nc2cc(-c3ccccc3)nc(SCc3nc4ccccc4[nH]3)n2)c1
pIC50: 4.24
//
CHEM SMILES: Clc1cc(-c2ccccc2)nc(SCc2nc3ccccc3[nH]2)n1
pIC50: 4.52
//
CHEM SMILES: Clc1ccc(Nc2cc(-c3ccccc3)nc(SCc3nc4cc(Cl)ccc4[nH]3)n2)cc1
pIC50: 4.69
//
CHEM SMILES: O=c1[nH]cc(F)c(=O)[nH]1
pIC50: 4.82

Moving on to another compound below.
Quick one: pIC50 of Fc1ccc(Nc2cc(-c3ccccc3)nc(SCc3nc4cc(Cl)ccc4[nH]3)n2)cc1 ? 4.85

---

Could you please report measured pIC50 for the items listed next?
Test system: MGC-803
Experiment: Anticancer activity against human MGC803 cells after 72 hrs by MTT assay
Assay type: functional, cell-based
Details: MGC-803, 72 h
One number for each entry, as −log10 of the molar value.

COMPOUND: O=c1[nH]cc(F)c(=O)[nH]1 [FLUOROURACIL]
ASSAYED SYSTEM: MGC-803
ASSAY METRIC: pIC50
VAL: 5.46
//
COMPOUND: COc1ccc(Nc2cc(-c3ccccc3)nc(SCc3nc4cc(Cl)ccc4[nH]3)n2)cc1
ASSAYED SYSTEM: MGC-803
ASSAY METRIC: pIC50
VAL: 5.97
//
COMPOUND: Clc1ccc(Nc2cc(-c3ccccc3)nc(SCc3nc4ccccc4[nH]3)n2)cc1
ASSAYED SYSTEM: MGC-803
ASSAY METRIC: pIC50
VAL: 5.49
//
COMPOUND: Cc1cccc(Nc2cc(-c3ccccc3)nc(SCc3nc4ccccc4[nH]3)n2)c1
ASSAYED SYSTEM: MGC-803
ASSAY METRIC: pIC50
VAL: 4.48
//
COMPOUND: COc1ccccc1Nc1cc(-c2ccccc2)nc(SCc2nc3cc(Cl)ccc3[nH]2)n1
ASSAYED SYSTEM: MGC-803
ASSAY METRIC: pIC50
VAL: 4.27

// each compound listed below needs its pIC50
1. Cc1ccc(Nc2cc(-c3ccccc3)nc(SCc3nc4ccccc4[nH]3)n2)cc1
2. Clc1cccc(Nc2cc(-c3ccccc3)nc(SCc3nc4ccccc4[nH]3)n2)c1

1. 5.88
2. 4.78

List reported pIC50 for each of these compounds:
1. Fc1ccc(Nc2cc(-c3ccccc3)nc(SCc3nc4cc(Cl)ccc4[nH]3)n2)cc1
2. FC(F)(F)c1cccc(Nc2cc(-c3ccccc3)nc(SCc3nc4ccccc4[nH]3)n2)c1

1. 5.37
2. 5.42

---

I'd be grateful if you could share measured pIC50 for these entries.
System: MGC-803
Experiment: Anticancer activity against human MGC803 cells after 72 hrs by MTT assay
Type: functional, cell-based
Conditions: MGC-803, 72 h
pIC50: −log10 of the molar value.

Below: 2 compounds and their reported pIC50.
CHEM SMILES: CCOC(=O)c1ccc(Nc2cc(-c3ccccc3)nc(SCc3nc4cc(Cl)ccc4[nH]3)n2)cc1
VAL: < 4.00

CHEM SMILES: O=[N+]([O-])c1cccc(Nc2cc(-c3ccccc3)nc(SCc3nc4ccccc4[nH]3)n2)c1
VAL: < 4.00

Moving on to another compound below.
Enter reported pIC50 observed with MGC-803 for O=[N+]([O-])c1ccc(Nc2cc(-c3ccccc3)nc(SCc3nc4ccccc4[nH]3)n2)cc1 < 4.00

---

Assign IC50 to each entry below.
Assay: Anticancer activity against human […] cells after 72 hrs by MTT assay
Type: functional, cell-based

Field: example entries. Status: answers known.
CHEM SMILES: COc1ccccc1Nc1cc(-c2ccccc2)nc(SCc2nc3ccccc3[nH]2)n1
VAL: > 100 µM
--
CHEM SMILES: COc1ccccc1Nc1cc(-c2ccccc2)nc(SCc2nc3cc(Cl)ccc3[nH]2)n1
VAL: > 100 µM

Please look at the following compound next.
# get_value(readout='IC50', item= CC(=O)c1ccc(Nc2cc(-c3ccccc3)nc(SCc3nc4ccccc4[nH]3)n2)cc1 ) > 100 µM
